- System: Renilla luciferase RNA
- experimentDescription: Barcoded aptazyme variant library screen: un-cleaved Renilla luciferase RNA by barcode read counts, HEK293-T cells
- Assay type: cell-based
- protocolConditions: un-cleaved Renilla luciferase RNA, HEK293-T cells cultured with 1 mM theophylline (ON) over without theophylline (OFF); barcode read counts, triplicate
- Source text: Based on the findings from Example 1, an aptazyme variant library was generated from the T3H48 ribozyme with one of seven variant theophylline aptamers inserted sequentially after each nucleotide of the DNA sequence encoding the T3H48 ribozyme sequence. […] The seven variant theophylline aptamers vary in their communication channels, which are the ribonucleotides of the aptamer that attach to the ribozyme sequence (see, Table 2). […]
Assignment: determine reported Fold change in RNA expression between the ON state and the OFF state for the given molecules.

Entry RA283 (nucleic acid, expressed or natural sequence) DNA: GCGCGTCCTGGAAGAATACCAGCATCGTCTTGATGCCCTTGGAAGTCTTTCGCGGAAACGCGTACATCCAGCTGACGAGTCCCAAATAGGACGAAACGCGC has what Fold change in RNA expression between the ON state and the OFF state?
1.0 fold

Entry RA081 (nucleic acid, expressed or natural sequence) DNA: GCGCGTCCTGGATTCGCGGAAACGCGTACATCCAGCTGACGAGTCCCAAGGAATACCAGCATCGTCTTGATGCCCTTGGAAGTCCATAGGACGAAACGCGC has what Fold change in RNA expression between the ON state and the OFF state?
1.7 fold

Entry RA001 (nucleic acid, expressed or natural sequence) DNA: GCGCGTCCTGGATTCGCGGAAACGCGTACATCCAGCTGACGAGTCCCAAATAGGACGAAACGCGCAGTGATACCAGCATCGTCTTGATGCCCTTGGCAGCACT has what Fold change in RNA expression between the ON state and the OFF state?
>6 fold

Entry RA204 (nucleic acid, expressed or natural sequence) DNA: GCGCGTCCCGGAATACCAGCATCGTCTTGATGCCCTTGGAAGTCCGTGGATTCGCGGAAACGCGTACATCCAGCTGACGAGTCCCAAATAGGACGAAACGCGC has what Fold change in RNA expression between the ON state and the OFF state?
1.2 fold

The measured values listed here are drawn from patent US20260167959A1.
